Listing: optical density of selected binders
Measured on: T1, Goat anti-Human Kappa
T1 construct: Positive control of the ELISA; also called biotinylated goat anti-human kappa light chain
Measurement notes: ELISA, positive control; note: test concentration or dose not given here
Procedure: The binding of ACVR2A-specific monoclonal antibodies to human ACVR2A, mouse ACVR2A, biotinylated goat anti-human kappa light chain (positive control) and human Fc (negative control) were determined by ELISA.
Just the number in OD, nothing appended.

Binder	Value unit	optical density
371_H09 (antibody, V domains shown) VH: EVQLLESGGGLVQPGGSLRLSCAASGFTFDSYSMNWVRQAPGKGLEWVSNINYNGGYTSYADSVKGRFTISRDNSKNTLYLQMNSLRAEDTAVYYCARSANWHDTALDYWGQGTLVTVSS VL: DIQMTQSPSSLSASVGDRVTITCRASQSILTYVNWYQQKPGKAPKLVIYAATSLASGVPSRFSGSGSGTDFTLTISSLQPEDFATYYCQQSYDSPLTFGGGTKVEIK	OD	3.66
368_C05 (antibody, V domains shown) VH: EVQLLESGGGLVQPGGSLRLSCAASGFTFDSYGMNWVRQAPGKGLEWVSGINYNSGYTSYADSVKGRFTISRDNSKNTLYLQMNSLRAEDTAVYYCARSANWHDTALDYWGQGTLVTVSS VL: DIQMTQSPSSLSASVGDRVTITCRASQSILSYLNWYQQKPGKAPKLVIYAATSRASGVPSRFSGSGSGTDFTLTISSLQPEDFATYYCQQSDSNPLTFGGGTKVEIK	OD	3.36
367_H11 (antibody, V domains shown) VH: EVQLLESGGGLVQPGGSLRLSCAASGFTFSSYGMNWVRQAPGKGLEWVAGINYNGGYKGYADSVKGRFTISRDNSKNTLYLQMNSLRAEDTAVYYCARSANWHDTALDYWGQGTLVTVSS VL: DIQMTQSPSSLSASVGDRVTITCRASQSIISYVNWYQQKPGKAPKLVIYAATSRASGVPSRFSGSGSGTDFTLTISSLQPEDFATYYCQQSYNSPLTFGGGTKVEIK	OD	3.61

optical density for 371_A07 (antibody, V domains shown) VH: EVQLLESGGGLVQPGGSLRLSCAASGFTFSDYSMNWVRQAPGKGLEWVSNINYNGGYKSYADSVKGRFTISRDNSKNTLYLQMNSLRAEDTAVYYCARSANWHDTALDYWGQGTLVTVSS VL: DIQMTQSPSSLSASVGDRVTITCRASQSILSYLNWYQQKPGKAPKLVIYATTSRASGVPSRFSGSGSGTDFTLTISSLQPEDFATYYCQQSYDLPLTFGGGTKVEIK ? 3.65

Queued: 373_C06 (antibody, V domains shown) VH: EVQLLESGGGLVQPGGSLRLSCAASGFTFSSYSMNWVRQAPGKGLEWVAGINYNGGYTGYADSVKGRFTISRDNSKNTLYLQMNSLRAEDTAVYYCARSANWHDTALDYWGQGTLVTVSS VL: DIQMTQSPSSLSASVGDRVTITCRASQSIVSYVNWYQQKPGKAPKLVIYAATSRASGVPSRFSGSGSGTDFTLTISSLQPEDFATYYCQQSYDTPLTFGGGTKVEIK 3.16

Queued: 368_H04 (antibody, V domains shown) VH: EVQLLESGGGLVQPGGSLRLSCAASGFTFSSYSMNWVRQAPGKGLEWVAGINYNSGYKGYADSVKGRFTISRDNSKNTLYLQMNSLRAEDTAVYYCAKSANWHDTHLDYWGQGTLVTVSS VL: DIQMTQSPSSLSASVGDRVTITCRASQSIVSYVNWYQQKPGKAPKLLIYAATSRASGVPSRFSGSGSGTDFTLTISSLQPEDFATYYCQQSYDSPLTFGGGTKVEIK 3.51
